test: activity coefficient (dimensionless); of the first substance listed, at infinite dilution; xn = mol fraction of the nth substance listed; conditions: 363.2 K; 101 kPa; Liquid; Chromatography; x1 = 0
property: activity coefficient
Please give the numeric answer without any surrounding text.

Use the examples below as a reference point.
compound	activity coefficient
C#CCCCCC [1-heptyne] + CN1CCCC1=O	1.92
C#CCCCCCC [1-octyne] + CN1CCCC1=O	2.16
C#CCCCCCC [1-octyne] + O=CN1CCOCC1	4.65
C#CCCC [1-pentyne] + CN1CCCC1=O	1.63
Cc1ccccc1 [toluene] + CN1CCCC1=O	1.42

What does the data say about its activity coefficient? Entry: c1ccccc1 [benzene] + O=CN1CCOCC1
1.81
